This listing pairs molecules with measured IC50.
# TARGET DESC: xanthine oxidase (Bos taurus)
Just the number in nM, nothing appended.

Would you please look over these solved cases?
[
  {
    "MOLECULE": "Cc1nc(-c2ccc(Sc3ccc(Cl)cc3)c(Br)c2)sc1C(=O)O [Example 65]",
    "IC50 (nM)": 1.6
  },
  {
    "MOLECULE": "CCC(CC)COc1ccc(-c2nc(C)c(C(=O)O)s2)cc1[N+](=O)[O-] [Example 42]",
    "IC50 (nM)": 2
  },
  {
    "MOLECULE": "CCN(CC)c1ccc(-c2nc(C)c(C(=O)O)s2)cc1[N+](=O)[O-] [Example 37]",
    "IC50 (nM)": 1.8
  },
  {
    "MOLECULE": "Cc1nc(-c2ccc(OCC(C)C)c(C(F)(F)F)c2)sc1C(=O)O [Example 83]",
    "IC50 (nM)": 1.1
  },
  {
    "MOLECULE": "Cc1nc(-c2cccc(C(=O)Nc3ccc(Cl)cc3)c2)sc1C(=O)O [Example 15]",
    "IC50 (nM)": 150
  },
  {
    "MOLECULE": "Cc1nc(-c2cc(C(C)(C)C)c(O)c(C(C)(C)C)c2)sc1C(=O)O [Example 29]",
    "IC50 (nM)": 65
  },
  {
    "MOLECULE": "Cc1nc(-c2ccc(Sc3ccc(Cl)cc3)c([N+](=O)[O-])c2)sc1C(=O)O [Example 36]",
    "IC50 (nM)": 0.02
  },
  {
    "MOLECULE": "Cc1nc(-c2cc([N+](=O)[O-])ccc2Cl)sc1C(=O)O [Example 24]",
    "IC50 (nM)": 67
  }
]

-- ask Enter reported IC50 observed with xanthine oxidase (Bos taurus) for Cc1nc(-c2ccc(OCCCC3CCCCC3)cc2)sc1C(=O)O [Example 8]
-- reply 3.2

-- ask Enter reported IC50 observed with xanthine oxidase (Bos taurus) for Cc1cc(-c2nc(C)c(C(=O)O)s2)cc(C)c1O [Example 30]
-- reply 42

* * *

# TARGET DESC: xanthine oxidase (Bos taurus, UniProt P80457)
# Sequence (P80457 whole entry): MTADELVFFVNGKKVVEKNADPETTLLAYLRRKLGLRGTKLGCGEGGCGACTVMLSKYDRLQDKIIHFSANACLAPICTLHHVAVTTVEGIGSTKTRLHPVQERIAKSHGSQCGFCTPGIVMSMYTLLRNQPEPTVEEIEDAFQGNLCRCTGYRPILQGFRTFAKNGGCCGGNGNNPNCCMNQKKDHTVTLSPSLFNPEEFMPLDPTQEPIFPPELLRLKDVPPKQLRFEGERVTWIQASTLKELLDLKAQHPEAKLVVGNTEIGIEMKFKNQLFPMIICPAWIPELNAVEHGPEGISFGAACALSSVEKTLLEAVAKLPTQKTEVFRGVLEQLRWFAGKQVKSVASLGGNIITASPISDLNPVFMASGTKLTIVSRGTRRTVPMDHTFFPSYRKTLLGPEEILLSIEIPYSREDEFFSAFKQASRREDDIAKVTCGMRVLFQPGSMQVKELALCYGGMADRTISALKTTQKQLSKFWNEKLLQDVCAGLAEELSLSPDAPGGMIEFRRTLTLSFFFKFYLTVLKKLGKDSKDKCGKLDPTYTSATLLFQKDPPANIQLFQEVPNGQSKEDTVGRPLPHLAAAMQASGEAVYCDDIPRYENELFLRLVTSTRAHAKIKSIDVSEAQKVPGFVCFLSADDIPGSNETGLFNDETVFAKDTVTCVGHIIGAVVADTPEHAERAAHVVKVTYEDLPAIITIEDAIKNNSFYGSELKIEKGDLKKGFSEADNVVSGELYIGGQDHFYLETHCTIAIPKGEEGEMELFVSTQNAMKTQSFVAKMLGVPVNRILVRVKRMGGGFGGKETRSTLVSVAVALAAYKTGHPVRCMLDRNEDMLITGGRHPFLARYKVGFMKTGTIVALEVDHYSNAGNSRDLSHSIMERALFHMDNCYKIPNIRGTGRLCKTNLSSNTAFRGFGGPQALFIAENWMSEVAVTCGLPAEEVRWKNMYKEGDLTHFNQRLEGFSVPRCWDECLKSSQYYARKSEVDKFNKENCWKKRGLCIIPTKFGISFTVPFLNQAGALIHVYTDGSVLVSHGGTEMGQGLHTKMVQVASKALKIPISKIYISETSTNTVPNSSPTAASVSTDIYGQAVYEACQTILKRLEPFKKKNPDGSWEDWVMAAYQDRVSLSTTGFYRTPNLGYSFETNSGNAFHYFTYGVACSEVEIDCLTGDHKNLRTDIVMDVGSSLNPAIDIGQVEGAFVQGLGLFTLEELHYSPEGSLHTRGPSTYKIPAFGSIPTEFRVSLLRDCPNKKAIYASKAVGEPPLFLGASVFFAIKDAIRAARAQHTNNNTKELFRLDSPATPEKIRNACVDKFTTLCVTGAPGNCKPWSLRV
pIC50: −log10 of the molar value.
# cutoff 8 applies to pIC50; >= gives met, < gives not met

See these solved cases before continuing.
[
  {
    "SAMPLE SMILES": "Cc1ccc(C(=O)c2ccc(-c3nc(C)c(C(=O)O)s3)cc2)c(C)c1",
    "CLASS ASSIGNMENT": "met"
  },
  {
    "SAMPLE SMILES": "CC(C)Oc1ccc(-c2nc(O)c(C(=O)O)s2)cc1",
    "CLASS ASSIGNMENT": "not met"
  },
  {
    "SAMPLE SMILES": "Cc1nc(-c2ccc(N3CCN(C)CC3)c([N+](=O)[O-])c2)sc1C(=O)O",
    "CLASS ASSIGNMENT": "met"
  },
  {
    "SAMPLE SMILES": "Cc1nc(-c2ccc(OCC(C)(C)C)c(I)c2)sc1C(=O)O",
    "CLASS ASSIGNMENT": "met"
  },
  {
    "SAMPLE SMILES": "O=C(O)c1sc(-c2cccc(Cl)c2)nc1O",
    "CLASS ASSIGNMENT": "not met"
  }
]

-- ask Reported pIC50 reaches at least 8 for Cc1ccc(C(=O)c2ccc(-c3nc(C)c(C(=O)O)s3)cc2)cc1 ?
-- reply met

-- ask Reported pIC50 reaches at least 8 for Cc1nc(-c2ccc(OCCC(C)C)c(Cl)c2)sc1C(=O)O ?
-- reply met

-- ask Reported pIC50 reaches at least 8 for Cc1nc(-c2cccc(C(F)(F)F)c2)sc1C(=O)O ?
-- reply met

-- ask Reported pIC50 reaches at least 8 for CCOCCOc1ccc(-c2nc(C)c(C(=O)O)s2)cc1[N+](=O)[O-] ?
-- reply met

* * *

# Test system: serum uric acid
# PROCEDURE DETAILS: Determination of oral administration: lowering of serum uric acid in mice
# Assay type: in vivo, ICR male mice
# CONDITION SUMMARY: Mus musculus; ICR male mice, oral, 1 mg/kg, 2 hours after administration, serum; read-out: Activity of lowering uric acid
READOUT TYPE: inhibition in vivo at 1 mg/kg (%)
Just the number in %, nothing appended.

[
  {
    "MOLECULE": "Cc1nc(-c2ccc(OCC3CCCCC3)c([N+](=O)[O-])c2)sc1C(=O)O [Example 32]",
    "TARGET DESC": "serum uric acid",
    "UNITS": "%",
    "inhibition in vivo at 1 mg/kg": 48
  },
  {
    "MOLECULE": "Cc1nc(-c2ccc(OCCCC3CCCCC3)cc2)sc1C(=O)O [Example 8]",
    "TARGET DESC": "serum uric acid",
    "UNITS": "%",
    "inhibition in vivo at 1 mg/kg": 28
  }
]

-- ask # query: inhibition in vivo at 1 mg/kg of entry Cc1nc(-c2ccc(OCC(C)C)c([N+](=O)[O-])c2)sc1C(=O)OCC(C)C [Example 48]
-- reply 88

-- ask # query: inhibition in vivo at 1 mg/kg of entry Cc1nc(-c2cc(Cl)c(OCCN3CCOCC3)c(Cl)c2)sc1C(=O)O [Example 72]
-- reply 48

* * *

# System: serum uric acid
# PROCEDURE DETAILS: Determination of oral administration: lowering of serum uric acid in mice
# Assay type: in vivo, ICR male mice
# CONDITION SUMMARY: Mus musculus; ICR male mice, oral, 1 mg/kg, 2 hours after administration, serum; read-out: Activity of lowering uric acid
READOUT TYPE: inhibition in vivo at 1 mg/kg

-- ask # query: inhibition in vivo at 1 mg/kg of entry Cc1nc(-c2ccc(OCC(C)C)c(Br)c2)sc1C(=O)O
-- reply 35%

-- ask # query: inhibition in vivo at 1 mg/kg of entry CCOc1ccc(-c2nc(C)c(C(=O)O)s2)cc1Cl
-- reply 35%

-- ask # query: inhibition in vivo at 1 mg/kg of entry Cc1nc(-c2ccc(N3CCOCC3)c(Cl)c2)sc1C(=O)O
-- reply 62%

-- ask # query: inhibition in vivo at 1 mg/kg of entry CCOCCOc1ccc(-c2nc(C)c(C(=O)O)s2)cc1C#N
-- reply 87%

-- ask # query: inhibition in vivo at 1 mg/kg of entry Cc1nc(-c2ccc(OCC(C)C)c(C=O)c2)sc1C(=O)O
-- reply 72%

-- ask # query: inhibition in vivo at 1 mg/kg of entry Cc1nc(-c2ccc(OCC(C)C)c([N+](=O)[O-])c2)sc1C(=O)O
-- reply 76%

-- ask # query: inhibition in vivo at 1 mg/kg of entry CCOCCOc1ccc(-c2nc(C)c(C(=O)O)s2)cc1[N+](=O)[O-]
-- reply 82%

* * *

# Tested on: serum uric acid
# PROCEDURE DETAILS: Determination of oral administration: lowering of serum uric acid in mice
# Format: in vivo, ICR male mice
# CONDITION SUMMARY: Mus musculus; ICR male mice, oral, 1 mg/kg, 2 hours after administration, serum; read-out: Activity of lowering uric acid
# cutoff 60% applies to inhibition in vivo at 1 mg/kg; >= gives t, < gives f

[
  {
    "SAMPLE SMILES": "CCC(CC)COc1c(Cl)cc(-c2nc(C)c(C(=O)O)s2)cc1Cl",
    "CLASS ASSIGNMENT": "f"
  }
]

-- ask Reported inhibition in vivo at 1 mg/kg reaches at least 60% for Cc1nc(-c2cc(Cl)c(OCC(C)C)c(Cl)c2)sc1C(=O)O ?
-- reply f

-- ask Reported inhibition in vivo at 1 mg/kg reaches at least 60% for CCN(CC)c1ccc(-c2nc(C)c(C(=O)O)s2)cc1[N+](=O)[O-] ?
-- reply t

-- ask Reported inhibition in vivo at 1 mg/kg reaches at least 60% for Cc1nc(-c2ccc(N3CCCCC3)c(Cl)c2)sc1C(=O)O ?
-- reply f

-- ask Reported inhibition in vivo at 1 mg/kg reaches at least 60% for Cc1ccc(C(=O)c2ccc(-c3nc(C)c(C(=O)O)s3)cc2)cc1 ?
-- reply f

-- ask Reported inhibition in vivo at 1 mg/kg reaches at least 60% for Cc1nc(-c2ccc(N3CCCCC3)c([N+](=O)[O-])c2)sc1C(=O)O ?
-- reply t

-- ask Reported inhibition in vivo at 1 mg/kg reaches at least 60% for CCC(CC)COc1ccc(-c2nc(C)c(C(=O)O)s2)cc1[N+](=O)[O-] ?
-- reply t

-- ask Reported inhibition in vivo at 1 mg/kg reaches at least 60% for Cc1nc(-c2ccc(SC(C)C)c([N+](=O)[O-])c2)sc1C(=O)O ?
-- reply f

-- ask Reported inhibition in vivo at 1 mg/kg reaches at least 60% for CCOc1ccc(-c2nc(C)c(C(=O)O)s2)cc1[N+](=O)[O-] ?
-- reply t
